From: PubChem BioAssay (NCI)

- Tested on: 786-0 renal
- ASSAY DETAILS: NCI tumour cell line growth inhibition, 48 h
Would you mind telling me the reported TGI of each entry?
One number for each entry, in µM.

Below: 4 molecules and their reported TGI.
Prompt line: Consider the molecule shown here: COc1cc(Nc2nccc(Nc3ccc4c(C)[nH]nc4c3)n2)cc(OC)c1OC What is its recorded TGI?
Response line: 9.7

Prompt line: Consider the molecule shown here: O=C(O[C@H]1CN[C@H](C#Cc2cc3ncnc(Nc4ccc5c(ccn5Cc5cc(F)ccc5F)c4)c3s2)C1)N1CCOCC1 What is its recorded TGI?
Response line: 12.6

Prompt line: Consider the molecule shown here: COc1cc(/C=C(\C#N)c2nc3ccccc3o2)ccc1O What is its recorded TGI?
Response line: 66.4

Prompt line: Consider the molecule shown here: Cn1c([N+](=O)[O-])cnc1/C=C1\Oc2ccccc2C1=O What is its recorded TGI?
Response line: 3.67

Okay, now this molecule:
Prompt line: Consider the molecule shown here: CC/C(C)=C1\CCC(CN2CCOCC2)C1=O (stereo not given) What is its recorded TGI?
Response line: 22.9
